Tested on: human red blood cells
RUN DESCRIPTION: Hemolytic activity
Format: cell-based
EXPERIMENTAL CONDITIONS: red cells of human, 18 h, 50
Square brackets hold non-standard residues; d marks the D form. Peptide text beside a SMILES is read from it.
Some compounds, each annotated with its measured Hemolysis percent, 50 μM.
Numbers only here, please. The scale is %.

COMPOUND	Hemolysis percent, 50 μM [%]
CC[C@@H](C)[C@@H](NC(=O)[C@@H](Cc1c[nH]c2ccccc12)NC(=O)[C@H](NC(=O)[C@@H](CC(C)C)NC(=O)[C@H](N)Cc1c[nH]c2ccccc12)C(C)C)C(=O)N[C@H](Cc1c[nH]c2ccccc12)C(=O)N[C@H](CCCNC(=N)N)C(=O)N[C@H](CCCNC(=N)N)C(=O)N[C@H](CCC(=O)O)C(=O)N[C@H](CCC(N)=O)C(N)=O [WCopW34] (H-[dW][dL][dV][dW][dI][dW][dR][dR][dE][dQ]-NH2)	-0.17

Turning now to a further record.
Look up Hemolysis percent, 50 μM for this compound: CC[C@@H](C)[C@@H](NC(=O)[C@@H](Cc1c[nH]c2ccccc12)NC(=O)[C@@H](CCCNC(=N)N)NC(=O)[C@@H](CCCNC(=N)N)NC(=O)[C@H](N)CCCNC(=N)N)C(=O)N[C@H](Cc1c[nH]c2ccccc12)C(=O)N[C@@H](C(=O)N[C@@H](C(=O)N[C@H](Cc1c[nH]c2ccccc12)C(=O)N[C@H](CCCCN)C(N)=O)[C@H](C)CC)C(C)C [WCopW43] (H-[dR][dR][dR][dW][dI][dW][dV][dI][dW][dK]-NH2)
2.22
